# system: Urotensin-2 receptor (Rattus norvegicus, UniProt P49684)
# Sequence (P49684 whole entry): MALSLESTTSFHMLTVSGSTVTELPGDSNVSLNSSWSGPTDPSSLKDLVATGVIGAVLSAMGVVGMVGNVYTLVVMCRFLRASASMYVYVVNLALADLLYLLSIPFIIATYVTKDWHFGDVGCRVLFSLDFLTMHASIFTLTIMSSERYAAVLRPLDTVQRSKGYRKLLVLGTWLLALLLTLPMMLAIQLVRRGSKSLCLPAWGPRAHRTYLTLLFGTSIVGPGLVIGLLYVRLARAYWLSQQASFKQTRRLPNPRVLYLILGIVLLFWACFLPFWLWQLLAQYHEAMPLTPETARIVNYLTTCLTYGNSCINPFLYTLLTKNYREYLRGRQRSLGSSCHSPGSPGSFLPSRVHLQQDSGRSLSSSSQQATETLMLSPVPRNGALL
# experiment: Allosteric modulation of urotensin-2 receptor in Sprague-Dawley rat thoracic aorta assessed as change in URP-mediated aortic ring contraction by measuring URP pEC50 at 10^-5M preincubated for 15 mins followed by URP addition (Rvb = 8.09 +/- 0.03 No_unit)
// values below are reported pEC50
Please note pEC50 is a logarithmic value: minus log10 of concentration in mol/L. Answer with that number alone.

See these solved cases before continuing.
- compound.structure.string: "NCCCCN1N=C(CCc2ccc(O)cc2)c2ccccc2N(Cc2ccc3ccccc3c2)C1=O"
  pEC50: 8.00
- compound.structure.string: "COc1ccc(CCC2=NN(CCCCN)C(=O)N(Cc3ccc(-c4ccccc4)cc3)c3ccccc32)cc1"
  pEC50: 8.30
- compound.structure.string: "NCCCN1N=C(CCc2ccc(O)cc2)c2ccccc2N(Cc2ccc(-c3ccccc3)cc2)C1=O"
  pEC50: 7.96
- compound.structure.string: "NCCCCN1N=C(CCc2ccc(O)cc2)c2ccccc2N(Cc2ccc(-c3ccccc3)cc2)C1=O"
  pEC50: 7.70
- compound.structure.string: "COc1ccc(C=CC2=NN(CCCCN)C(=O)N(Cc3ccc4ccccc4c3)c3ccccc32)cc1"
  pEC50: 8.07

### Prompt Please give the measured pEC50 for this molecule: NCCCN1N=C(CCc2nc3ccccc3s2)c2ccccc2N(Cc2cccc3ccccc23)C1=O
### Response 8.24

### Prompt What measured pEC50 goes with CNCCCN1N=C(CCc2nc3ccccc3s2)c2ccccc2N(Cc2ccc(-c3ccccc3)cc2)C1=O ?
### Response 8.31

### Prompt Form field: reported pEC50 of NCCCN1N=C(CCc2ccc(O)cc2)c2ccccc2N(Cc2ccc3ccccc3c2)C1=O
### Response 8.00

### Prompt # lookup: pEC50 of NCCCN1N=C(CCc2nc3ccccc3s2)c2ccccc2N(Cc2ccc(-c3ccccc3)cc2)C1=O
### Response 8.43

### Prompt Using the record for NCCCN1N=C(CCc2nc3ccccc3s2)c2ccccc2N(Cc2ccc3ccccc3c2)C1=O , report its pEC50.
### Response 8.40

Source of measurements: BindingDB's records for doi:10.1021/acs.jmedchem.7b01525
